Where do the numbers come from? From the nanobody polyreactivity screen of Harvey et al. (2022).

# assay.protocol: yeast display, Sf9 membrane polyspecificity reagent, FACS + sequencing; frameworks hold sequencing errors
measured.metric: polyreactivity (PSR sort gate)

Some solved cases for reference:
residues | polyreactivity (PSR sort gate)
QVQLVESGGGLVQAGGSLRLSCAASGSIFSINTMGWYRQAPGKERELVAAISRTGGSTYYADSVKGRFTISRDNAKNTVYLQMNSLKPEDTAVYYCAARKYADGRIFYYWGQGTQVTVSS | high polyreactivity
QVQLVESGGGLVQAGGSLRLSCAASGRIFVKNAMGWYRQAPGKERELVAAISSSSGSTYYADSVKGRFTISRDNAKNTVYLQMNSLKPEDTAVYYCATVRWYYSRPRPTTAYGYWGQGTQVNVSS | high polyreactivity
QVQLVESGGGLVQAGGSLRLSCAASGITFEGYAMGRYRQAPGKERELVAAITGSGSTTYYADSVKGRFTISRDNAKNTVYLQMNSLKPEDTAVYYCAADVSYKLYWGQGTQVTVSS | low polyreactivity
QVQLVESGGGLVQAGGSLRLSCAASGNTFDYYAMGWYRQAPGKERELVAAITRGGSTNYADSVKGRFTISRDNAKNTVSLQMNSLKPEDTAVYYCAAEQRAPRFADYDYWGQGTQVTVSS | low polyreactivity
QVQLVESGGGLVQAGASLRLSCAASGSTLWYYAMGWYRQAPGKERELVADITSSGNTNYADSVKGRFTISRDNAKNTVYLQMNSLKPEDTAVYYCAADSANYQWYLSWQKDDYWGQGTKVTVSS | low polyreactivity

Enquiry: Provide one value: measured polyreactivity (PSR sort gate) of QVQLVESGGGLVQAGGSLRLSCAASGRILPSNAMGWYRQAPGKERELVAAIRSGDRTYYADSVKGRFTISRDNAKNTVYLQMNSLKPEDTAVYYCAAFYHHYYRYDYWGQGTQVTVSS
Return: low polyreactivity

Enquiry: Output polyreactivity (PSR sort gate) of QVQLVESGGGLVQAGGSLRLSCAASGSILEPYAMGWYRQAPGKERELVAAISSSGGSTRYADSVKGRFTISRDNAKNTVYLQMNSLKPEDTAVYYCAARFRAKFNYWGQGTQVTVSS
Return: low polyreactivity

Enquiry: Kindly indicate its recorded polyreactivity (PSR sort gate). Item: QVQLVESGGGLVQAGGSLRLSCAASGSTFYWNAMGWYRQAPGKESEFVARISSRGGSTYYADSVKGRFTISRDNAKNTVYLQMNSLKPEDTAVYYCAARLRRTQTYSSGRPGDYWGQGTQVTVSS
Return: high polyreactivity

Enquiry: Given the sequence QDQLVESGGGLVLSGGRLRLSCAASGSNFSFYAMGWYRQAPGKERELVAGIRWRGGTSTFYADSVKWRFTISRDNAKNTVYLQMNSLKPEDTAVYYCAAKRRTGGNGYWGQGTQVTVSS , write its reported polyreactivity (PSR sort gate).
Return: high polyreactivity

Enquiry: // fetch polyreactivity (PSR sort gate) given entry QFQLVESGGGLVQAGGSLRLSCAASGITFYGNAKGWYRQAPGKVREFVAAITVDGGSTYAVSVKGRFTISRDNAKNTVYLQMNSLKPEDTAVYYCNKAYLRRSLKSGYPYDSWGQGTQVTVSS
Return: low polyreactivity

Enquiry: Provide polyreactivity (PSR sort gate) value for the following sequence: QVQLVESGGGLVQAGGSLRLRCAASGSIFAHYTMGWYRQAPGKERELVAVISRSGARTYYADSVKGRFTISRDNAKNTVYLQMNSLKPEDTEVYYCAADRTLEEDYWGQGTQVTVSS
Return: low polyreactivity
